For each of the compounds below, state its pIC50.
# Target or test system: AR-VP16 (Homo sapiens, UniProt P10275)
# Run description: AR-VP16 DNA Binding Assay, antagonist mode (HepG2 cells, 0.1 nM R1881)
pIC50: −log10 of the molar value.

Give its pIC50 value. Item: COC(=O)c1ccc(N2C(=S)N(c3cnc(C#N)c(C)c3)C(=O)C23CCC3)c(F)c1 [Compound 71]
< 6.00

Give its pIC50 value. Item: N#Cc1ncc(N2C(=O)C3(CCC3)N(c3ccc(-c4ccccc4)cc3)C2=S)cc1C(F)(F)F [Compound 13]
> 6.00

Give its pIC50 value. Item: Cc1cc(N2C(=O)C3(CCC3)N(c3ccc(C(N)=O)c(F)c3)C2=S)cnc1C#N [Compound 232]
> 6.00

Give its pIC50 value. Item: Cc1cc(N2C(=O)C3(CCC3)N(c3ccc4c(c3)CNC4=O)C2=S)cnc1C#N [Compound 111]
< 6.00

Give its pIC50 value. Item: CCCCNC(=O)c1ccc(N2C(=S)N(c3cnc(C#N)c(C(F)(F)F)c3)C(=O)C23CCC3)cc1F [Compound 277]
> 6.00

Give its pIC50 value. Item: CNC(=O)c1ccc(N2C(=S)N(c3ccc(C#N)c4ncccc34)C(=O)C23CCC3)cc1F [Compound 37]
> 6.00

Give its pIC50 value. Item: N#Cc1ncc(N2C(=O)C3(CCC3)N(c3ccc(C(=O)NCCCO)c(F)c3)C2=S)cc1C(F)(F)F [Compound 306]
> 6.00

Give its pIC50 value. Item: N#Cc1ncc(N2C(=O)C3(CCC3)N(c3ccc(Oc4ccncc4)cc3)C2=S)cc1C(F)(F)F [Compound 40]
> 6.00

====

# Target or test system: AR-VP16 (Homo sapiens)
# Run description: AR-VP16 DNA Binding Assay, antagonist mode (HepG2 cells, 0.1 nM R1881)
pIC50: −log10 of the molar value.
Observation type: pIC50

Give its pIC50 value. Item: N#Cc1ncc(N2C(=O)C3(CCC3)N(c3ccc4ccccc4c3)C2=S)cc1C(F)(F)F [Compound 9]
> 6.00

Give its pIC50 value. Item: N#Cc1ncc(N2C(=O)C3(CCC3)N(c3ccc(C(=O)NCC4CCCC4)c(F)c3)C2=S)cc1C(F)(F)F [Compound 283]
> 6.00

Give its pIC50 value. Item: N#Cc1ncc(N2C(=O)C3(CCC3)N(c3ccc(Oc4ncccn4)cc3)C2=S)cc1C(F)(F)F [Compound 206]
> 6.00

Give its pIC50 value. Item: N#Cc1ncc(N2C(=O)C3(CCC3)N(c3ccc(-c4ccncc4)cc3)C2=S)cc1C(F)(F)F [Compound 18]
> 6.00

====

# Target or test system: UniProt P10275
# Sequence (P10275 560-920 limits assumed): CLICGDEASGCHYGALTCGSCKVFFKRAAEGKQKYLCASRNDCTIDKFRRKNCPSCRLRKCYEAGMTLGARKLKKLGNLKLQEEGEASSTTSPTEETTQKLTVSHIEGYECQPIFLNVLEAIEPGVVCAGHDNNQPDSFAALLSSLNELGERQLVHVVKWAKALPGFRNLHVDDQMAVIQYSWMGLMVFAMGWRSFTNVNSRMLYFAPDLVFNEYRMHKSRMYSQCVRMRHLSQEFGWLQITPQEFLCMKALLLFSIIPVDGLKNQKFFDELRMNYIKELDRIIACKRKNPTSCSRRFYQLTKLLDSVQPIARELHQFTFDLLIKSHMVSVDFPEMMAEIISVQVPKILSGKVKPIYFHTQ
# Run description: AR-VP16 DNA Binding Assay, antagonist mode (HepG2 cells, 0.1 nM R1881)
For each of the molecules below, state its IC50.

Give its IC50 value. Item: `Cc1cc(N2C(=O)C3(CCC3)N(c3ccc(OC4CCS(=O)(=O)CC4)cc3)C2=S)cnc1C#N`
< 1 µM

Give its IC50 value. Item: `N#Cc1ncc(N2C(=O)C3(CCC3)N(c3ccc(F)c(O)c3)C2=S)cc1C(F)(F)F`
> 1 µM

Give its IC50 value. Item: `N#Cc1ncc(N2C(=O)C3(CCC3)N(c3ccc(F)c(C(=O)NCCc4ccncc4)c3)C2=S)cc1C(F)(F)F`
> 1 µM

Give its IC50 value. Item: `N#Cc1ncc(N2C(=O)C3(CCC3)N(c3ccc(F)c(OCCCc4ccccc4)c3)C2=S)cc1C(F)(F)F`
> 1 µM

Give its IC50 value. Item: `CC(C)C(=O)N1CCC(Oc2ccc(N3C(=S)N(c4cnc(C#N)c(C(F)(F)F)c4)C(=O)C34CCC4)cc2)CC1`
< 1 µM

Give its IC50 value. Item: `C#CCNC(=O)c1ccc(N2C(=S)N(c3cnc(C#N)c(C(F)(F)F)c3)C(=O)C23CCC3)cc1F`
< 1 µM

Give its IC50 value. Item: `N#Cc1ncc(N2C(=O)C3(CCC3)N(c3ccc(OCCCc4ccccc4)c(F)c3)C2=S)cc1C(F)(F)F`
> 1 µM

Give its IC50 value. Item: `CCOC(=O)CCCNC(=O)c1ccc(N2C(=S)N(c3cnc(C#N)c(C(F)(F)F)c3)C(=O)C23CCC3)cc1F`
> 1 µM

Give its IC50 value. Item: `Cc1ccccc1CCOc1ccc(N2C(=S)N(c3cnc(C#N)c(C(F)(F)F)c3)C(=O)C23CCC3)cc1F`
< 1 µM

Give its IC50 value. Item: `N#Cc1ncc(N2C(=O)C3(CCC3)N(c3ccc4ncoc4c3)C2=S)cc1C(F)(F)F`
< 1 µM

Give its IC50 value. Item: `CNC(=O)c1ccc(N2C(=S)N(c3cnc(C#N)c(C(F)(F)F)c3)C(=O)C2(C)C)cc1F`
< 1 µM

Give its IC50 value. Item: `CN1CCN(CCNC(=O)c2cc(N3C(=S)N(c4cnc(C#N)c(C(F)(F)F)c4)C(=O)C34CCC4)ccc2F)CC1`
> 1 µM

Give its IC50 value. Item: `CCOC(=O)CN1CCC(Oc2ccc(N3C(=S)N(c4cnc(C#N)c(C(F)(F)F)c4)C(=O)C34CCC4)cc2)CC1`
> 1 µM

Give its IC50 value. Item: `N#Cc1ncc(N2C(=O)C3(CCC3)N(c3ccc(OCCc4ncccn4)c(F)c3)C2=S)cc1C(F)(F)F`
< 1 µM

====

# Target or test system: AR-VP16 (Homo sapiens)
# Sequence (P10275 560-920 limits assumed): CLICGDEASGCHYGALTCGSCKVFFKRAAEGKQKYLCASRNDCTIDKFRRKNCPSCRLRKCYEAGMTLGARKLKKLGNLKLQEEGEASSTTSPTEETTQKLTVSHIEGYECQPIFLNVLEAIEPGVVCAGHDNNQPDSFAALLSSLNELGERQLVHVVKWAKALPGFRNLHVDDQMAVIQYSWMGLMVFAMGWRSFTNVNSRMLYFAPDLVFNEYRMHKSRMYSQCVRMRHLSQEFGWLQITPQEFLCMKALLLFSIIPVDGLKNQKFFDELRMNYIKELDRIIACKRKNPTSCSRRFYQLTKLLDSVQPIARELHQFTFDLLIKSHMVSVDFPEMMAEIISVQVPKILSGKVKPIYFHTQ
# Run description: AR-VP16 DNA Binding Assay, antagonist mode (HepG2 cells, 0.1 nM R1881)
Observation type: IC50

Notebook entry, AR-VP16 (Homo sapiens) assay: IC50 of N#Cc1ccccc1N1C(=S)N(c2cnc(C#N)c(C(F)(F)F)c2)C(=O)C12CCC2 [Compound 10] = ?
> 1000 nM

Notebook entry, AR-VP16 (Homo sapiens) assay: IC50 of COCCN(C)C(=O)c1ccc(N2C(=S)N(c3cnc(C#N)c(C(F)(F)F)c3)C(=O)C23CCC3)cc1F [Compound 250] = ?
> 1000 nM

Notebook entry, AR-VP16 (Homo sapiens) assay: IC50 of Cc1cc(N2C(=O)C3(CCC3)N(c3ccc(C(=O)Nc4ccccc4)c(F)c3)C2=S)cnc1C#N [Compound 272] = ?
< 1000 nM

Notebook entry, AR-VP16 (Homo sapiens) assay: IC50 of N#Cc1ncc(N2C(=O)C3(CCC3)N(c3ccc(F)c(OCCc4ccncc4)c3)C2=S)cc1C(F)(F)F [Compound 160] = ?
> 1000 nM

Notebook entry, AR-VP16 (Homo sapiens) assay: IC50 of N#Cc1ncc(N2C(=O)C3(CCC3)N(c3ccc(F)c(OCCc4ccccc4)c3)C2=S)cc1C(F)(F)F [Compound 162] = ?
> 1000 nM

Notebook entry, AR-VP16 (Homo sapiens) assay: IC50 of CNC(=O)c1ccc(N2C(=S)N(c3cnc(C#N)c4ccccc34)C(=O)C23CCC3)cc1F [Compound 66] = ?
< 1000 nM

Notebook entry, AR-VP16 (Homo sapiens) assay: IC50 of N#Cc1ncc(N2C(=O)C3(CCC3)N(c3ccccc3F)C2=S)cc1C(F)(F)F [Compound 26] = ?
< 1000 nM

Notebook entry, AR-VP16 (Homo sapiens) assay: IC50 of N#Cc1ncc(N2C(=O)C3(CCC3)N(c3ccc4ccncc4c3)C2=S)cc1C(F)(F)F [Compound 52] = ?
< 1000 nM

Notebook entry, AR-VP16 (Homo sapiens) assay: IC50 of N#Cc1ncc(N2C(=O)C3(CCC3)N(c3ccc(O)cc3F)C2=S)cc1C(F)(F)F [Compound 64] = ?
< 1000 nM

Notebook entry, AR-VP16 (Homo sapiens) assay: IC50 of N#Cc1ncc(N2C(=O)C3(CCC3)N(c3ccc(F)cc3)C2=S)cc1C(F)(F)F [Compound 28] = ?
< 1000 nM

Notebook entry, AR-VP16 (Homo sapiens) assay: IC50 of Cc1ccc(N2C(=S)N(c3ccc(C#N)n4nccc34)C(=O)C23CCC3)cc1 [Compound 82] = ?
< 1000 nM

Notebook entry, AR-VP16 (Homo sapiens) assay: IC50 of Cc1ccc(N2C(=S)N(c3ccc(C#N)c(C(F)(F)F)n3)C(=O)C23CCC3)cc1 [Compound 34] = ?
> 1000 nM

Notebook entry, AR-VP16 (Homo sapiens) assay: IC50 of Cc1cc(N2C(=O)C3(CCC3)N(c3ccc(C(=O)NCc4ccccc4)c(F)c3)C2=S)cnc1C#N [Compound 273] = ?
< 1000 nM

Notebook entry, AR-VP16 (Homo sapiens) assay: IC50 of N#Cc1ncc(N2C(=O)C3(CCC3)N(c3ccc(OCc4ccccn4)c(F)c3)C2=S)cc1C(F)(F)F [Compound 147] = ?
< 1000 nM

Notebook entry, AR-VP16 (Homo sapiens) assay: IC50 of N#Cc1ncc(N2C(=O)C3(CCC3)N(c3ccc(C(=O)NCCCN4CCCC4=O)c(F)c3)C2=S)cc1C(F)(F)F [Compound 308] = ?
< 1000 nM

Notebook entry, AR-VP16 (Homo sapiens) assay: IC50 of CNC(=O)c1ccc(N2C(=S)N(c3cnc(C#N)c(C)c3)C(=O)C23CCC3)cc1F [Compound 5] = ?
< 1000 nM

Notebook entry, AR-VP16 (Homo sapiens) assay: IC50 of CCC(=O)N1CCC(Oc2ccc(N3C(=S)N(c4cnc(C#N)c(C(F)(F)F)c4)C(=O)C34CCC4)cc2)CC1 [Compound 212] = ?
< 1000 nM

Notebook entry, AR-VP16 (Homo sapiens) assay: IC50 of CN1CCN(CCOc2ccc(N3C(=S)N(c4ccc(C#N)c5ncccc45)C(=O)C34CCC4)cc2F)CC1 [Compound 173] = ?
< 1000 nM

Notebook entry, AR-VP16 (Homo sapiens) assay: IC50 of N#Cc1ncc(N2C(=O)C3(CCC3)N(c3ccc(C(=O)NCc4ccco4)c(F)c3)C2=S)cc1C(F)(F)F [Compound 266] = ?
< 1000 nM

Notebook entry, AR-VP16 (Homo sapiens) assay: IC50 of N#Cc1ncc(N2C(=O)C3(CCC3)N(c3ccc(C(=O)NCCc4ccccn4)c(F)c3)C2=S)cc1C(F)(F)F [Compound 236] = ?
< 1000 nM

Notebook entry, AR-VP16 (Homo sapiens) assay: IC50 of COCCOc1ccc(N2C(=S)N(c3cnc(C#N)c(C(F)(F)F)c3)C(=O)C23CCC3)c(F)c1 [Compound 181] = ?
< 1000 nM

Notebook entry, AR-VP16 (Homo sapiens) assay: IC50 of CN1CCN(CCCOc2cc(N3C(=S)N(c4cnc(C#N)c(C(F)(F)F)c4)C(=O)C34CCC4)ccc2F)CC1 [Compound 167] = ?
> 1000 nM

Notebook entry, AR-VP16 (Homo sapiens) assay: IC50 of Cc1ccc(N2C(=S)N(c3cnc(C#N)c(Cl)c3)C(=O)C23CCC3)cc1 [Compound 57] = ?
< 1000 nM

Notebook entry, AR-VP16 (Homo sapiens) assay: IC50 of Cc1ccc(N2C(=S)N(c3ccc4nccn4c3)C(=O)C23CCC3)cc1 [Compound 62] = ?
> 1000 nM

Notebook entry, AR-VP16 (Homo sapiens) assay: IC50 of N#Cc1ccc(N2C(=O)C3(CCC3)N(c3ccc(OCCc4ccccn4)c(F)c3)C2=S)c2cccnc12 [Compound 172] = ?
< 1000 nM

Notebook entry, AR-VP16 (Homo sapiens) assay: IC50 of CC(C)CNC(=O)c1ccc(N2C(=S)N(c3cnc(C#N)c(C(F)(F)F)c3)C(=O)C23CCC3)cc1F [Compound 280] = ?
< 1000 nM

Notebook entry, AR-VP16 (Homo sapiens) assay: IC50 of N#Cc1ncc(N2C(=O)C3(CCC3)N(c3ccc(F)c(C(=O)NCCN4CCOCC4)c3)C2=S)cc1C(F)(F)F [Compound 253] = ?
> 1000 nM

Notebook entry, AR-VP16 (Homo sapiens) assay: IC50 of CNC(=O)c1ccc(N2C(=S)N(c3cnc(C#N)c(C)c3)C(=O)C2(C)C)cc1F [Compound 47] = ?
< 1000 nM

Notebook entry, AR-VP16 (Homo sapiens) assay: IC50 of N#Cc1ncc(N2C(=O)C3(CCC3)N(c3ccc(OCCc4cccc5ccccc45)c(F)c3)C2=S)cc1C(F)(F)F [Compound 140] = ?
> 1000 nM

Notebook entry, AR-VP16 (Homo sapiens) assay: IC50 of N#Cc1ncc(N2C(=O)C3(CCC3)N(c3ccc(OCCN4CCS(=O)(=O)CC4)c(F)c3)C2=S)cc1C(F)(F)F [Compound 186] = ?
< 1000 nM

Taken from patent US9108944B2.
